So I've got a bunch of molecules here, and I need their melting point values.

>>> df
                                   molecule         result
0  COc1ccc(Nc2nc(NC(=O)C(C)(C)C)nc3[nH]c4ccccc4c23)cc1  219 to 220 °C
1         CC(C)NCC#CC1(O)c2ccccc2-c2ccccc21  135 to 137 °C
2  C#Cc1cnc2c(C)cc(OC(SC)C(=O)NC(C)(C#N)CF)cc2c1 (stereo not given)  180 to 182 °C

Report melting point for each item below.
1. O=Cc1cccn2ccnc12
2. CCOc1cc(-c2cc(C(F)(F)F)n3cnc(-c4ccncc4)c3n2)ccc1C(F)(F)F
3. O=C1CC2(C(=O)N1)C(=O)N(Cc1ccc(Cl)c(Cl)c1)c1ccccc12 (stereo not given)

stdout:
137 to 139 °C
212 °C
205 to 207 °C

Report melting point for each item below.
1. CC(=O)Nc1nc(CCc2ccc(N)cc2)c(-c2ccc(S(C)(=O)=O)cc2)s1
2. COc1cccc(Nc2c(N)cc(C(=O)O)cc2S(N)(=O)=O)c1

stdout:
["202 to 204 °C", "232 to 234 °C"]

Report melting point for each item below.
1. Nc1nc2c(N)cc(OC(F)(F)F)cc2s1
2. O=C(O)C1c2ccccc2COc2ccccc21 (stereo not given)

stdout:
1: 206 °C; 2: 200 to 201 °C

* * *

property.label: melting point

In [3]: df
Out[3]:
                                   compound         result
0  CC(C)(C)c1cc(Sc2nnc(NC(=N)N)s2)cc(C(C)(C)C)c1O  248 to 249 °C

Report melting point for each item below.
1. COc1ccccc1NC(=O)Cc1ccccc1
2. CN1CCN(C2Cc3cc(Cl)ccc3Sc3ccc(F)cc32)CC1 (centres undefined)
3. Cc1ccc(-c2cc(C=O)ccn2)cc1
4. O=C(Nc1cccc(CO)c1)NC1N=C(c2ccccc2F)c2ccccc2N(CC(=O)N2CC3CCC(CC3)C2)C1=O (racemic)
5. CCCCNC(=S)N1CCc2cc(S(=O)(=O)N3CC(c4ccccc4)NC3=O)ccc21 (centres undefined)
6. CNc1cc(Oc2ccc3c(c2)CCCN3C(=O)Nc2ccc(C(C)(C)C)cc2)ncn1
7. CC(=O)N[C@@H](C)COc1cc(-c2nc3cc(OCC4CC4)ccc3o2)on1

stdout:
1. 128 to 131 °C
2. 118 to 120 °C
3. 66 °C
4. 143 to 161 °C
5. 186 to 188 °C
6. 175 to 176 °C
7. 156 to 157 °C

stdin: Note melting point for the compound shown: `O=c1c2c(Cl)cc(Cl)cc2[nH]c2c(O)nn(-c3ccccc3)c(=O)c12`
stdout: 361 to 363 °C

* * *

So I've got a bunch of compounds here, and I need their melting point values.

>>> df
                         chemical_structure         result
0  O=C(O)Cn1cc(Cc2nc3c(F)c(F)cc(F)c3s2)c2ccc(-c3ccccc3)cc21  156 to 159 °C
1                    CC(C)(C)c1nnc(N=C=O)s1  261 to 263 °C
2  O=C(O)c1cn(C2CC2)c2nc(N3CCNCC3)c(F)cc2c1=O  274 to 276 °C

Report melting point for each item below.
1. Brc1ccc2c3c(cccc13)C(NCCCCCCCCCCCCn1ccnc1)=N2
2. CC(C)(O)c1ccc(CNC(=O)c2cccnc2Oc2ccc3ncoc3c2)cc1

stdout:
["111 to 116 °C", "92 to 94 °C"]

* * *

So I've got a bunch of compounds here, and I need their melting point values.

                                   compound  property_label         result
0           COC(=O)c1nn(-c2ccc(CBr)cc2)nc1C   melting point  122 to 125 °C
1  Cc1ccc(OCC(=O)c2cc(C(C)C)c(O)c(C(C)C)c2)cc1   melting point  124 to 125 °C
2                  O=C1CCCc2cc(OCCCCl)ccc21   melting point    85 to 87 °C

Report melting point for each item below.
1. CC1(C)COC(c2ccc(F)cc2-c2ccc3c(c2)CCC(Cc2ccccc2)C3=O)=N1 (stereo not given)
2. CC(C)(C)NC(=O)C#CBr
3. CN1CCC(Nc2nc3ccccc3n2Cc2cnccn2)CC1
4. CCOC(=O)COc1ccc2c(c1)CC(CNC(=O)OC(C)(C)C)C2 (stereo not given)
5. CCOC(=O)c1cc2c3n(ccc-2n1)CC(CO)=N3
6. Cc1nc2c3c(c(C(=O)N(C)C)cc2[nH]1)CC[C@@H](c1ccccc1C)O3

stdout:
1. 114 to 115 °C
2. 113 °C
3. 169 °C
4. 56 to 63 °C
5. 227 to 229 °C
6. 219 °C

Report melting point for each item below.
1. CN(Cc1cc2c3c(c1)c(=O)c(C(=O)NCc1ccc(Cl)cc1)cn3CC(=O)N2C)C[C@@H](O)c1nccs1
2. CCN(CC)C(=O)c1ccc(C(=C2CCN(Cc3ccccc3)CC2)c2cccc(OC)c2)cc1
3. Nc1cccc(CCN2CCN(c3nsc4ccccc34)CC2)c1
4. O=C(Nc1cccc(S(=O)(=O)Nc2ccccc2)c1)c1cnn2c(C(F)F)cc(-c3ccc(C(F)(F)F)cc3)nc12
5. COc1ccc(S(=O)(=O)NC(C)c2cc(F)ccc2-c2ccc(F)cc2F)c(OC)c1 (stereo not given)

stdout:
["125 to 130 °C", "100 to 110 °C", "108 °C", "228 °C", "192 to 194 °C"]

Report melting point for each item below.
1. O=C(CC(F)(F)F)NC[C@H]1CN(c2ccc3c(c2)CCCc2cnoc2-3)C(=O)O1
2. CCCc1c(C(=O)C(C)C)c2ccc(C(N)=O)cc2n1Cc1ccc(Br)cc1Cl
3. O=Cc1ccc(OCc2ccccc2)c2[nH]c(C(=O)O)cc12
4. COc1cccc2c1Cc1ccccc1C2(CCOS(C)(=O)=O)CCOS(C)(=O)=O
5. CC(C)(C)OC(=O)NCC1=CC(c2ccccc2)Cc2c1ccc(OC(=O)C(C)(C)C)c2OC(=O)C(C)(C)C (stereo not given)
6. Cc1ccc2nc(C3(c4ccc(S(N)(=O)=O)cc4)C=C(C(F)(F)F)NN3)oc2c1 (stereo not given)
7. CC(C)(C)OC(=O)NN1CCNC1=O
8. O=C(O)c1ccccc1Nc1ccnn1Cc1ccccc1

stdout:
["150 to 186 °C", "199 to 201 °C", "207 °C", "128 to 131 °C", "64 to 69 °C", "260 to 261 °C", "186 to 188 °C", "190 °C"]

* * *

So I've got a bunch of compounds here, and I need their melting point values.
Numbers only, in °C.

# annotated cases, reported melting point shown
                                   compound  quantitative_result
0  O=C(NC(=O)c1c(F)cccc1F)Nc1ccc2c(c1)C(F)(F)OC(F)(F)O2                  231
1                Cc1ccc2c(c1)C(=O)c1cccn1-2                   85
2           COC(=O)c1ccc(NCc2cc(O)ccc2O)cc1                  175
3               O=C(NC/C=C/c1ccccc1)c1ccoc1                  115

Let us move to another entry and its melting point.
stdin: Note melting point for the compound shown: NC(=O)C(Nc1ccc2ccccc2c1)c1c(Cl)cccc1Cl (stereo unspecified)
stdout: 158

* * *

So I've got a bunch of compounds here, and I need their melting point values.

# annotated cases, reported melting point shown
>>> print(df.to_string())
                                   compound         result
0  COc1ccc(Oc2c(Cl)cc([N+](=O)[O-])cc2Cl)cc1C(C)C    75 to 77 °C
1          CCOC(=O)c1ccn2nc(-c3ccccc3)cc2n1  180 to 181 °C
2            CCc1cc2c([nH]c1=O)C(=O)C=CC2=O         168 °C
3  CCC(C)(CCc1ccccc1)NC(=O)n1nc(C)n(N)c1=O (stereo unspecified)          78 °C
4             N#Cc1ccc(C(=O)C=Cc2ccccc2)cc1         120 °C

Report melting point for each item below.
1. CSCc1cnc2c([N+](=O)[O-])cccc2c1Cl
2. CCOc1ccc2c(c1)CC(=O)N2C1CCCCO1 (stereo unspecified)

stdout:
1. 96 to 98 °C
2. 108 to 110 °C

* * *

// label = y if melting point is not less than 100 °C, otherwise n

Here are 4 compounds together with their reported answers.
In [3]: df
Out[3]:
                                   compound  class
0          Fc1cccc(Cl)c1-c1c(Cl)cc(Cl)nc1Cl      y
1  CCCCCCCC(=O)Nc1ccc2c(C(F)(F)F)cc(=O)oc2c1      y
2                   NC(=O)NCCNc1ccc(N)cc1Cl      y
3  CCC(C#N)(COc1ccc(Cl)cc1)c1cccnc1 (stereo unspecified)      n

Now examine the next entry.
stdin: Textbook exercise: given the entry O=C(O)CC1CCCCCCCCCCC1=O (stereo unspecified) , state whether its melting point is greater than or equal to 100 °C.
stdout: y
